Procedure text: inhibition of 3D7 malaria parasite growth – strain 3D7 (AID 2306);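 further: 0% = DMSO wells and 100% = chloroquine plus artemisinin control wells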
Condition set: P. falciparum 3D7 erythrocytic growth, LDH absorbance, 72 h; at 2 µM; stronger effect = higher value
Please provide measured growth inhibition for the entries that follow.
Give the value, in units of %, as a plain number.

Q) Please give the measured growth inhibition for this molecule: `Cc1ccc2nc(-c3cc(-c4cccc(CCN5CCOCC5)c4)cnc3N)[nH]c2c1`
A) 101

Q) And then `O=c1[nH]c(NCCCNCc2cc3c(Cl)cc(Cl)cc3[nH]2)nc2ccsc12` , what is it?
A) 96

Q) And then CN(C)c1ccc(CN2CCCCC(NC(=O)c3cc(-c4ccccc4Cl)cs3)C2)cc1 (centres undefined) , what is it?
A) 91

Q) And then `O=C(Nc1cccc(CN2CCCN(Cc3ccsc3)CC2)c1)c1ccc(-c2ccccc2)cc1` , what is it?
A) 90

Q) And then `O=C(Nc1cccc(-c2ccc(-c3nc4ccc(F)cc4[nH]3)cc2)c1)c1ccoc1` , what is it?
A) 85

Q) And then `O=C(C=Cc1ccc(Cl)c(Cl)c1)NC1CCN(CCc2ccccc2)CC1` , what is it?
A) 97

Q) And then `COc1cc(Cc2cnc(N)nc2N)ccc1OCc1ccc(-c2csnn2)cc1` , what is it?
A) 97

Q) And then `O=C(Nc1cccc(CN2CCCN(Cc3ccc(O)cc3)CC2)c1)c1ccc(-c2ccccc2)cc1` , what is it?
A) 100

Q) And then COc1ccc(C2CC(=O)C3=C(C2)NC(C)=C(C(=O)OC(C)C)C3c2ccc(O)cc2)cc1OC (centres undefined) , what is it?
A) 99

Q) And then `COc1ccc(C=NNc2nc(-c3ccccc3)cc(=O)[nH]2)cc1OC` , what is it?
A) 92

Q) And then `O=C(Cc1cccc(Cl)c1)Nc1cccc(-c2c[nH]c3nc(Nc4cccc(O)c4)ncc23)c1` , what is it?
A) 100

Q) And then NC1CCN(Cc2cccc(-c3ccc(-c4nc5ccc(C(F)(F)F)cc5[nH]4)cc3)c2)C1 (centres undefined) , what is it?
A) 99

Q) And then O=c1cc(NCCC2CC=CCN2Cc2ccc(Cl)c(Cl)c2)[nH]c2ccccc12 (centres undefined) , what is it?
A) 94

Q) And then `C=CCOc1ccc(-c2c(C)[nH]c(C)c(Br)c2=O)cc1` , what is it?
A) 98

Q) And then `O=C(Nc1ccccc1O)c1ccc(S(=O)(=O)c2ccc(Cl)cc2)cc1` , what is it?
A) 90

Q) And then CN(C)c1ccc(-c2csc(C(=O)NCC3CCN(Cc4ccc(C(C)(C)C)cc4)C3)c2)cc1 (centres undefined) , what is it?
A) 97

Q) And then `COc1ccc2nc(-c3ccccc3)cc(NN=Cc3ccncc3)c2c1` , what is it?
A) 99

Q) And then `O=C(NCCN1Cc2ccccc2C1=O)c1ccc(Oc2ccc(C(=O)NCCN3Cc4ccccc4C3=O)cc2)cc1` , what is it?
A) 99

Q) And then `CC(=O)Oc1ccc(C(=O)Oc2ccccc2C#CC#N)cc1OC(C)=O` , what is it?
A) 93

Q) And then `CN1CCN(c2ccc(-c3cccc(NC(=O)c4ccc5ccccc5c4)c3)nn2)CC1` , what is it?
A) 94

Q) And then `CCCCN1CCN(Cc2cccc(NC(=O)c3ccc(Cl)c(Cl)c3)c2)CC1` , what is it?
A) 88

Q) And then `OCCNc1nc(Nc2ccc(F)cc2)nc2ccccc12` , what is it?
A) 94

Q) And then `COc1ccc(-c2cc3ncn(CC(=O)N4CCN(c5cccc(OC)c5)CC4)c(=O)c3s2)cc1` , what is it?
A) 84

Q) And then `Cc1cc(N2CCOCC2)nc2ccc(NC(=O)c3ccc(Cl)c([N+](=O)[O-])c3)cc12` , what is it?
A) 98

Q) And then `Cc1cc(N[C@@H](Cc2ccccc2)C(=O)NCCCOC(C)C)nc(NCCc2ccc(F)cc2)n1` , what is it?
A) 101

Q) And then c1cc(CNCC2CCCO2)cc(-c2csc(-c3nc4ccccc4[nH]3)c2)c1 (centres undefined) , what is it?
A) 91

Q) And then `COc1cc(Cc2cnc(N)nc2N)cc(OCCCCCC(=O)O)c1OC` , what is it?
A) 95

Q) And then `COc1ccc(-c2nc(NC(=O)COc3ccc(C(C)=O)cc3)sc2C)cc1` , what is it?
A) 98

Q) And then CN(C)c1ccc(-c2csc(C(=O)NCC3CCN(CC4CCCCC4)C3)c2)cc1 (centres undefined) , what is it?
A) 86

Q) And then CC(Cc1ccc(COc2ccc(CC(CO)NCCc3cccc(Cl)c3)cc2)cc1)NCCc1cccc(Cl)c1 (centres undefined) , what is it?
A) 101

Q) And then `COc1cccc(C2CCN(CCN3CCC(NC(=O)c4ccc(-c5ccc(C(F)(F)F)cc5)cc4)CC3)CC2)c1` , what is it?
A) 99

Q) And then `Cc1cccc2[nH]c(-c3cccc(-c4cccc(CNCCNC(=O)c5ccnn5C)c4)c3)nc12` , what is it?
A) 100

Q) And then CC1CN(c2cc(=O)n(Cc3ccc(NC(=O)Nc4ccc(-c5ccccc5)cc4)cc3)cn2)CC(C)N1 (centres undefined) , what is it?
A) 87

Q) And then `Cc1c(C(=O)N2CCc3cc4nccc(N5CCN6CCC[C@H]6C5)c4cc32)cnn1-c1ccc(C#N)cc1` , what is it?
A) 90

Q) And then `CC(C)CNc1c2c(nc3cnn(-c4c5c(nc6cn[nH]c46)CCCC5)c13)CCCC2` , what is it?
A) 100

Q) And then `COc1cc2nc(N3CCC(CNC(=O)c4ccc(-c5ccc(C(=O)N(C)C)cc5)c(OCCO)c4)CC3)nc(N)c2cc1OC` , what is it?
A) 96

Q) And then COc1ccc2cc(C(c3nnnn3CC3CCCO3)N3CCc4ccccc43)c(=O)[nH]c2c1 (centres undefined) , what is it?
A) 94

Q) And then `Cc1cc(C(=O)OCC(N)=O)c(C)n1-c1ccc(F)cc1` , what is it?
A) 97

Q) And then `CC(C)CNCc1cccc(-c2ccccc2CN(C(=O)NCCc2ccccc2)C2CCN(Cc3ccccc3)CC2)c1` , what is it?
A) 89
